Hello, the source for this data is patent US20220048900A1, in case you need it.

- Method description: Pharmacokinetics of modified release sparsentan formulations, PO (Example 5)
- Assay type: in vivo, male Sprague Dawley rats
- Particulars: Sprague Dawley, rat, 60 mg/kg/day, plasma, male rats, dose mg/kg/day #1 60, #2 60 (total dose), #3 38, #4 28.8, #5 30, #6 28.6, read-out: AUC0.5-24 hr

Molecule | AUC (µg·h/mL)
CCCCC1=NC2(CCCC2)C(=O)N1Cc1ccc(-c2ccccc2S(=O)(=O)Nc2noc(C)c2C)c(COCC)c1 [crystalline sparsentan] | 311

* * *

- Method description: Pharmacokinetics of modified release sparsentan formulations, PO (Example 5)
- Format: in vivo, male Sprague Dawley rats
- Particulars: Sprague Dawley, rat, 60 mg/kg/day, plasma, male rats, dose mg/kg/day #1 60, #2 60 (30 x 2, from first dose), #3 38, #4 28.8, #5 30, #6 28.6
Measured parameter: Cmax (µg/mL)

Chemical string | Measured result
CCCCC1=NC2(CCCC2)C(=O)N1Cc1ccc(-c2ccccc2S(=O)(=O)Nc2noc(C)c2C)c(COCC)c1 | 54.6
